Measured total protein half-life in vivo by item
assay.notes: total protein half-life in vivo (active degradation + dilution); higher = more stable protein
stated.conditions: wild type E. coli NCM3722; growth: P-lim chemostat; doubling time 12 h
The figure you give is taken to be in h; do not add the unit.

Look over these answered cases.
polymer.sequence | total protein half-life in vivo [h]
MSLTRLLIRDFRNIETADLALSPGFNFLVGANGSGKTSVLEAIYTLGHGRAFRSLQIGRVIRHEQEAFVLHGRLQGEERETAIGLTKDKQGDSKVRIDGTDGHKVAELAHLMPMQLITPEGFTLLNGGPKYRRAFLDWGCFHNEPGFFTAWSNLKRLLKQRNAALRQVTRYEQLRPWDKELIPLAEQISTWRAEYSAGIAADMADTCKQFLPEFSLTFSFQRGWEKETEYAEVLERNFERDRQLTYTAHGPHKADLRIRADGAPVEDTLSRGQLKLLMCALRLAQGEFLTRESGRRCLYLIDDFASELDDERRGLLASRLKATQSQVFVSAISAEHVIDMSDENSKMFTVEKGKITD [P0A7H0] | 7.31
MYERYAGLIFDMDGTILDTEPTHRKAWREVLGHYGLQYDIQAMIALNGSPTWRIAQAIIELNQADLDPHALAREKTEAVRSMLLDSVEPLPLVDVVKSWHGRRPMAVGTGSESAIAEALLAHLGLRHYFDAVVAADHVKHHKPAPDTFLLCAQRMGVQPTQCVVFEDADFGIQAARAAGMDAVDVRLL | 7.98
MSKSLQKPTILNVETVARSRLFTVESVDLEFSNGVRRVYERMRPTNREAVMIVPIVDDHLILIREYAVGTESYELGFSKGLIDPGESVYEAANRELKEEVGFGANDLTFLKKLSMAPSYFSSKMNIVVAQDLYPESLEGDEPEPLPQVRWPLAHMMDLLEDPDFNEARNVSALFLVREWLKGQGRV | 11.5
MSNKMTGLVKWFNADKGFGFISPVDGSKDVFVHFSAIQNDNYRTLFEGQKVTFSIESGAKGPAAANVIITD | 1.16
MPYKTKSDLPESVKHVLPSHAQDIYKEAFNSAWDQYKDKEDRRDDASREETAHKVAWAAVKHEYAKGDDDKWHKKS [P0AE63] | 7.39

Request: Entry MKYDTSELCDIYQEDVNVVEPLFSNFGGRASFGGQIITVKCFEDNGLLYDLLEQNGRGRVLVVDGGGSVRRALVDAELARLAVQNEWEGLVIYGAVRQVDDLEELDIGIQAMAAIPVGAAGEGIGESDVRVNFGGVTFFSGDHLYADNTGIILSEDPLDIE [P0A8R0] has what total protein half-life in vivo?
Response: 12.7

Request: Next sequence: MSKLDLNALNELPKVDRILALAETNAELEKLDAEGRVAWALDNLPGEYVLSSSFGIQAAVSLHLVNQIRPDIPVILTDTGYLFPETYRFIDELTDKLKLNLKVYRATESAAWQEARYGKLWEQGVEGIEKYNDINKVEPMNRALKELNAQTWFAGLRREQSGSRANLPVLAIQRGVFKVLPIIDWDNRTIYQYLQKHGLKYHPLWDEGYLSVGDTHTTRKWEPGMAEEETRFFGLKRECGLHEG
Response: 6.15

Request: Next sequence: MWSEYSLEVVDAVARNGSFSAAAQELHRVPSAVSYTVRQLEEWLAVPLFERRHRDVELTAAGAWFLKEGRSVVKKMQITRQQCQQIANGWRGQLAIAVDNIVRPERTRQMIVDFYRHFDDVELLVFQEVFNGVWDALSDGRVELAIGATRAIPVGGRYAFRDMGMLSWSCVVASHHPLALMDGPFSDDTLRNWPSLVREDTSRTLPKRITWLLDNQKRVVVPDWESSATCISAGLCIGMVPTHFAKPWLNEGKWVALELENPFPDSACCLTWQQNDMSPALTWLLEYLGDSETLNKEWLREPEETPATGD [P0ACR2]
Response: 8.51

Request: Next sequence: MKKLQIAVGIIRNENNEIFITRRAADAHMANKLEFPGGKIEMGETPEQAVVRELQEEVGITPQHFSLFEKLEYEFPDRHITLWFWLVERWEGEPWGKEGQPGEWMSLVGLNADDFPPANEPVIAKLKRL
Response: 11

Request: Next sequence: MKDVVDKCSTKGCAIDIGTVIDNDNCTSKFSRFFATREEAESFMTKLKELAAATSSADEGASVAYKIKDLEGQVELDAAFTFSCQAEMIIFELSLRSLA
Response: 7.64

Request: Next sequence: MTMNITSKQMEITPAIRQHVADRLAKLEKWQTHLINPHIILSKEPQGFVADATINTPNGVLVASGKHEDMYTAINELINKLERQLNKLQHKGEARRAATSVKDANFVEEVEEE [P0AD49]
Response: 1.59

Request: Next sequence: MIRSMTAYARREIKGEWGSATWEMRSVNQRYLETYFRLPEQFRSLEPVVRERIRSRLTRGKVECTLRYEPDVSAQGELILNEKLAKQLVTAANWVKMQSDEGEINPVDILRWPGVMAAQEQDLDAIAAEILAALDGTLDDFIVARETEGQALKALIEQRLEGVTAEVVKVRSHMPEILQWQRERLVAKLEDAQVQLENNRLEQELVLLAQRIDVAEELDRLEAHVKETYNILKKKEAVGRRLDFMMQEFNRESNTLASKSINAEVTNSAIELKVLIEQMREQIQNIE
Response: 12.9

Request: Next sequence: MTIKNKMLLGALLLVTSAAWAAPATAGSTNTSGISKYELSSFIADFKHFKPGDTVPEMYRTDEYNIKQWQLRNLPAPDAGTHWTYMGGAYVLISDTDGKIIKAYDGEIFYHR
Response: 13.4
